Tested on: HepG2
ASSAY EXPLANATION: GSK_TCMDC: Percent inhibition of human HepG2 cell line. Test compounds present at 10uM.
Format: functional
Catalogue of molecules with associated Inhibition
MEASURED ATTRIBUTE: Inhibition (%)

INSERT INTO measurements (molecule, measured_attribute, recorded_number) VALUES
  ('O=C(Nc1cccc(Cl)c1Cl)Nc1ccnc2ccccc12', 'Inhibition', 31),
  ('Cc1ccccc1C1CCN(C2CCC(NC(=O)/C=C/c3cccc(C(F)(F)F)c3)CC2)CC1 (stereo not given)', 'Inhibition', 96),
  ('COc1nc2c(CCN3CC[C@H](NCc4cc(C#N)c5c(c4)OCCO5)[C@H](O)C3)ccnc2cc1F', 'Inhibition', 18),
  ('O=C(O)C(F)(F)F.Oc1ccc(CCNc2nc(NCCCOc3ccccc3-c3ccncc3)nc(N3CCNCC3)n2)cc1', 'Inhibition', 8),
  ('Cc1cccc(CNc2nc(C)cc(N[C@@H](CC(C)C)C(=O)NCCOc3ccccc3)n2)c1.O=C(O)C(F)(F)F', 'Inhibition', 15),
  ('Cc1cccc2nc(-c3cccc(-c4ccc(NC(=O)C(C)(C)c5ccccn5)cc4)c3)[nH]c12', 'Inhibition', 0),
  ('FC(F)(F)c1ccc2[nH]c(-c3cccc(-c4ccc(CNCc5cnn(-c6ccccc6)n5)cc4)c3)nc2c1.O=C(O)C(F)(F)F', 'Inhibition', 14),
  ('COc1ccc(-c2nc(-c3ccc([N+](=O)[O-])cc3)no2)cc1OC', 'Inhibition', 14),
  ('Cc1ccc(S(=O)(=O)NC2CCN(CCNC(=O)Nc3cc(C)nc4ccccc34)C2)cc1 (stereo not given)', 'Inhibition', 0),
  ('COc1cc2c(cc1NS(=O)(=O)c1ccc(OCc3ccc(Br)cc3)cc1)CCN(C1CCC1)CC2.Cl', 'Inhibition', 36),
  ('CS(=O)(=O)c1cccc(-c2cnc(N)c3cc(-c4cccc(F)c4)ccc23)c1', 'Inhibition', 45),
  ('Cl.N=C(NC1CC1)c1ccc2[nH]c(CCCCCc3nc4cc(C(=N)NC5CC5)ccc4[nH]3)nc2c1', 'Inhibition', 0),
  ('COc1ccc2nccc(N3CCC(CCNCc4ccc5c(n4)NC(=O)CO5)CC3)c2c1.Cl', 'Inhibition', 22),
  ('Cc1cc(C(=O)NCc2ccc(-c3c(C)noc3C)cc2)n(-c2ccccc2)n1', 'Inhibition', 4),
  ('CCC(C)(C)n1c(C)cc2c3c(N)nc(N)nc3ccc21', 'Inhibition', 69),
  ('O=C(NCc1ccc(C(F)(F)F)cc1)c1cccc(-c2nnc(-c3cccc(-c4cncnc4)c3)o2)c1', 'Inhibition', 13),
  ('CC1CCN(c2nc(C(=O)Nc3ccc(F)cc3C(F)(F)F)c(C(C)C)s2)CC1.O=C(O)C(F)(F)F', 'Inhibition', 5),
  ('N#Cc1ccc(-c2ccc(C(=O)NC3CCN(CCN4CCC(c5cn(CCOC6CCCCO6)c6ccccc56)CC4)CC3)cc2)cc1 (stereo not given)', 'Inhibition', 48),
  ('COc1cc([N+](=O)[O-])ccc1NC(=O)c1cc(Cl)ccc1O', 'Inhibition', 92),
  ('NC(=O)c1cccc(-n2ccc3cc(CNC4Cc5ccccc5C4)ccc32)c1.O=C(O)C(F)(F)F', 'Inhibition', 17),
  ('O=C(CC1SC(N2N=C(c3cccs3)CC2c2ccccc2)=NC1=O)Nc1ccccc1F (stereo not given)', 'Inhibition', 9),
  ('Cn1cnc(CCNC(=O)c2ccc(-c3cccc(-c4nc5cc(F)ccc5[nH]4)c3)cc2)c1', 'Inhibition', 23),
  ('O=C(Nc1cccc(C(F)(F)F)c1)Nc1nc2ccc([N+](=O)[O-])cc2s1', 'Inhibition', 81),
  ('FC(F)(F)c1ccc2[nH]c(-c3cccc(-c4cccc(CNCC5CCCO5)c4)c3)nc2c1.O=C(O)C(F)(F)F (stereo not given)', 'Inhibition', 23),
  ('O=C(C=Cc1ccc(Cl)c(Cl)c1)NCCCCCN1CCC(CCNC(=O)c2cccc3ccccc23)CC1', 'Inhibition', 17),
  ('CCC1N=C(N)N=C(N)N1OCc1ccc(Cl)c(Cl)c1 (stereo not given)', 'Inhibition', 54),
  ('O=C(Nc1ccc(OC2CCN(Cc3ccsc3)C2)c(Cl)c1)c1ccsc1.O=C(O)C(F)(F)F (stereo not given)', 'Inhibition', 4),
  ('Cc1cccc2nc(-c3ccc(-c4cccc(NC(=O)CN5CCN(C)CC5)c4)s3)[nH]c12', 'Inhibition', 7),
  ('CS(=O)(=O)c1ccc(CCNCc2ccc(-c3cccc(-c4nc5ccccc5[nH]4)c3)cc2)cc1.O=C(O)C(F)(F)F', 'Inhibition', 40),
  ('NC1CCN(Cc2cccc(-c3cccc(-c4nc5ccccc5[nH]4)c3)c2)C1.O=C(O)C(F)(F)F (stereo not given)', 'Inhibition', 14),
  ('N=C(N)Nc1nc(-c2ccc(NCc3ccc(CNc4cccc(-c5csc(NC(=N)N)n5)c4)cc3)cc2)cs1', 'Inhibition', 11),
  ('NCc1ccc(CNCc2cccc(-c3cccc(-c4nc5cc(F)ccc5[nH]4)c3)c2)cc1.O=C(O)C(F)(F)F', 'Inhibition', 15),
  ('O=C(NCCCc1ccccc1)c1csc(C2CCCN(C(=O)c3ccc(O)c(-c4ccccc4)c3)C2)n1 (stereo not given)', 'Inhibition', 5),
  ('Clc1ccc(/N=C(/NCCCCCCCN/C(=N\c2ccc(Cl)cc2)Nc2ccc(Cl)cc2)Nc2ccc(Cl)cc2)cc1', 'Inhibition', 100),
  ('O=C(Cc1ccc(NC(=O)c2ccc(O)c(-c3cccc([N+](=O)[O-])c3)c2)cc1)NCCN1CCCCC1', 'Inhibition', 4);
